System: Fathead minnow (Pimephales promelas) acute toxicity, lethality
Test: DSSTox (EPAFHM) EPA Fathead Minnow Acute Toxicity
Below, each entry is listed alongside its reported Potency.
test-readout: Potency

• COC(=O)c1ccc(C(=O)OC)c(N)c1 = 42.7 µM
• COC(=O)c1cc(Cl)ccc1Cl = 68.3 µM
• C=CC=O = 0.303 µM
• CCOc1ccc(N)c([N+](=O)[O-])c1 = 143 µM
• CCc1ccccn1 = 3860 µM
• CCN1C(=O)CC(=O)N(CC)C1=S = 22500 µM
• CCNCCO = 16600 µM
• CCOP(=S)(OCC)Oc1cc(C)nc(C(C)C)n1 = 30.7 µM
• CC(=O)c1cccc(N)c1 = 2830 µM
• Cc1cc(O)ccc1Cl = 38.4 µM
• CCCCCCC(C)=O = 281 µM
• c1ccc2c(c1)CCO2 = 680 µM
• CC(=O)CCC=C(C)C = 679 µM
• CC(C)O = 144000 µM
• CC(C)CC=O = 37.7 µM
• CCN(CC)C1CCCCC1 = 138 µM
• COc1cc(O)c(C=O)c(OC)c1 = 14.7 µM

###

Tested on: Fathead minnow (Pimephales promelas) acute toxicity, lethality
Experiment: DSSTox (EPAFHM) EPA Fathead Minnow Acute Toxicity
test-readout: Potency

- CC(C)c1cccc(C(C)C)c1N: 86.3 µM
- OCCNCCO: 44800 µM
- c1ccc2ncccc2c1: 602 µM
- Nc1ccc(Br)cn1: 1020 µM
- C=CC(O)CCC (configuration not stated): 304 µM
- ClCC(Cl)CCl: 391 µM
- CCC[CH2][Sn]([CH2]CCC)([CH2]CCC)[CH2]CCC: 0.13 µM
- ON=C1CCCCC1: 1840 µM
- CC=O: 767 µM
- O=Cc1ccc([N+](=O)[O-])cc1: 66.8 µM
- CC(=O)/C=C/C1=C(C)CCCC1(C)C: 26.5 µM
- CN(C)c1ccc(/C=C/C=O)cc1: 36.7 µM
- CCOCC: 34500 µM
- CN(C)c1ccccn1: 1040 µM
- CCOC(=O)c1cccc(N)c1: 302 µM
- CCCCCCCCOc1ccccc1NC(C)=O: 1.71 µM
- CCCSCCSCCC: 42.2 µM

###

Below, each entry is listed alongside its reported Potency.
Tested on: Fathead minnow (Pimephales promelas) acute toxicity, lethality
Assay: DSSTox (EPAFHM) EPA Fathead Minnow Acute Toxicity
test-readout: Potency

* N#Cc1ccccn1 | 6970 µM
* CNC(=O)Oc1ccc(C(C)(C)C)cc1 | 48.2 µM
* O=Cc1ccc(Cl)cc1 | 15.6 µM
* Nc1c(F)c(F)c(F)c(F)c1F | 203 µM
* CCC(C)=O | 44700 µM
* CCc1ccc(N)cc1 | 602 µM
* CCCCCCCCCN | 15 µM
* ClC(Cl)=C(Cl)Cl | 99.5 µM
* COc1ccc(OC)cc1 | 847 µM
* Cc1cc(C)c(O)c(C)c1 | 95.4 µM
* CN(C)N | 131 µM
* CCOP(=S)(Oc1ccc([N+](=O)[O-])cc1)c1ccccc1 (stereo not given) | 0.243 µM
* CNC(=O)Oc1cccc2c1OC(C)(C)C2 | 3.81 µM
* C#CC1(O)CCCCC1 | 2060 µM
* CC(N)Cc1ccccc1 (stereo not given) | 78.2 µM
* Clc1nc(Cl)c(Cl)c(Cl)c1Cl | 1.87 µM
* O=C(O)c1cccc(C(=O)O)n1 | 1930 µM
* Cc1ccc(C)c(C)c1 | 64.2 µM
* CCCCCOCCCCC | 19.8 µM
* CC(C)c1ccc2c(c1)CC[C@H]1[C@](C)(C(=O)O)CCC[C@]21C | 6.99 µM
* CCCCCCOc1ccc(C=O)cc1OC | 11.3 µM
* CCCCC(C)=O | 4270 µM
* Cc1ccccc1 | 368 µM
* OCC(Cl)(Cl)Cl | 2000 µM
* C=Cc1cccc(CCl)c1 | 2.03 µM

###

Test system: Fathead minnow (Pimephales promelas) acute toxicity, lethality
Assay: DSSTox (EPAFHM) EPA Fathead Minnow Acute Toxicity
test-readout: Potency

* N#Cc1cc(Cl)c(O)c(Cl)c1 | 129 µM
* Oc1cccc2ccccc12 | 32.1 µM
* C1CCOC1 | 30000 µM
* CCCCCCCCc1ccc(N)cc1 | 0.584 µM
* CC[N+](CC)(CC)Cc1ccccc1 | 707 µM
* O=c1cccc(Cl)[nH]1 | 1650 µM
* OCCN1CCOCC1 | 20700 µM
* CCCCOC(C)=O | 155 µM
* CC(=O)Nc1ccccc1O | 179 µM
* c1ccc2c(c1)oc1ccccc12 | 8.92 µM
* CC(=O)C(C)CN(C)C (stereo not drawn) | 65.8 µM
* c1ccccc1 | 225 µM
* OC(C(F)(F)F)C(F)(F)F | 1450 µM
* CCCCCCCCBr | 4.34 µM
* Clc1ccccc1Cl | 64 µM
* CC(C)c1ccc(C=O)cc1 | 44.7 µM
* Cc1ccccc1O | 129 µM
* C=CC(=O)OCCO | 41.4 µM
* Nc1ccccc1 | 1130 µM
* COC(=O)c1ccc(C#N)cc1 | 290 µM
* CCCCCCCCCO | 39.5 µM
* Nc1ccc(Cl)cc1 | 246 µM
* C#CC(C)O (stereo not drawn) | 167 µM
* NC(=O)c1cccc(Br)c1 | 463 µM
* CCN(CC)CCO | 15200 µM
* CCOC(=O)CC(=O)OCC | 91.8 µM
* CCCCCCN | 559 µM
* CC1CNCC(C)O1 (stereo not drawn) | 3360 µM
* Cc1cocn1 | 16700 µM
* CCCSCCCCSCCC | 14.5 µM
* CC(C)OC(C)C | 7690 µM
* CNC(=O)Oc1ccccc1OC(C)C | 42.1 µM
* COP(=S)(OC)SCn1nnc2ccccc2c1=O | 0.202 µM
* O=P(c1ccccc1)(c1ccccc1)c1ccccc1 | 193 µM
* c1ccoc1 | 896 µM
* Cc1ccc(N(C)C)cc1 | 362 µM
* CCC(C)(C)c1ccc(O)cc1 | 15.8 µM
* CCCCCC | 29 µM
* C=CCCCCCCC=C | 2.1 µM
* CCc1ccc(C)nc1 | 669 µM
* CCCCCCC(C)N (stereo not drawn) | 40.2 µM
* CC(O)CN (stereo not drawn) | 33600 µM
* O=C(c1ccc(Br)cc1)c1cccnc1 | 77.8 µM
* ClC(Cl)Cl | 592 µM
* Nc1ccc(Br)cc1 | 276 µM
* CC(Cl)CCl (stereo not drawn) | 1120 µM
* CCN(CC)c1ccccc1 | 110 µM
* CCOCCOC(C)=O | 319 µM
* Oc1c(Cl)cc(Cl)c(Cl)c1Cc1c(O)c(Cl)cc(Cl)c1Cl | 0.0516 µM
* COc1c(O)c(Br)cc(C=O)c1[N+](=O)[O-] | 266 µM
* ClC=C(Cl)Cl | 336 µM
* OC1CCCCC1 | 7030 µM
* CC(C)SSC(C)C | 55.3 µM
* c1ccc(Nc2ccccc2)cc1 | 22.4 µM
* CCCCCc1ccccc1 | 11.5 µM
* COc1cc(OC)c(OC)cc1C=O | 252 µM
* CC1CNCCN1 (stereo not drawn) | 22400 µM
* Cc1ccc(C)o1 | 740 µM
* Nc1ccc([N+](=O)[O-])cc1Cl | 116 µM
* COC(=O)c1ccc(O)cc1O | 272 µM
* CC(C)(C)CN | 5450 µM
* O=C(Oc1ccccc1)c1ccccc1C(=O)Oc1ccccc1 | 0.251 µM
* CNC(=O)O/N=C(\SC)C(=O)N(C)C | 30.9 µM

###

Below, each entry is listed alongside its reported Potency.
System: Fathead minnow (Pimephales promelas) acute toxicity, lethality
Assay: DSSTox (EPAFHM) EPA Fathead Minnow Acute Toxicity
test-readout: Potency

• ClCCN1CCCC1 = 0.9 mM
• O=[N+]([O-])c1ccccc1O = 1.15 mM
• c1ccc(-c2cccc(-c3ccccc3)n2)cc1 = 0.000908 mM
• CCCO = 75.7 mM
• NC(=O)c1ccccc1N = 2.9 mM

###

Below, each entry is listed alongside its reported Potency.
System: Fathead minnow (Pimephales promelas) acute toxicity, lethality
Experiment: DSSTox (EPAFHM) EPA Fathead Minnow Acute Toxicity
test-readout: Potency

* CCN(CC)C(=O)c1cccc(C)c1 | 575 µM
* ClCCl | 3890 µM
* COC(=O)c1ccc([N+](=O)[O-])cc1 | 131 µM
* CC(C)=C1C=C2CC[C@@H]3[C@](C)(CCC[C@@]3(C)C(=O)O)[C@H]2CC1 | 4.93 µM
* CCCCC=O | 150 µM
* Cc1ccc(C)c(O)c1C | 60.2 µM
* CN(C)c1ccccc1 | 529 µM
* C#CCN(CC#C)CC#C | 2260 µM
* CN1CCNCC1 | 23000 µM
* C#CC(C)(O)c1ccccc1 (centres undefined) | 773 µM
* c1ccc(-c2ccncc2)cc1 | 104 µM
* OCCOCCOCCO | 459000 µM
* CC(=O)c1ccccc1 | 1350 µM
* Oc1cc(Cl)c(Cl)c(Cl)c1Cl | 1.77 µM
* CC(C)(C)SC(C)(C)C | 199 µM
* O=Cc1c(F)cccc1Cl | 59.3 µM
* c1ccncc1 | 1260 µM
* C=CCOC(=O)C(=C)C | 7.85 µM
* CC1(C)C(C=C(Cl)Cl)C1C(=O)OCc1cccc(Oc2ccccc2)c1 (centres undefined) | 0.0409 µM
* CC(=O)c1ccc(Cl)cc1Cl | 68.9 µM
* O=S(Cc1ccccc1)Cc1ccccc1 | 348 µM
* O=C(Oc1ccccc1)c1ccccc1O | 5.51 µM
* Nc1ccc(F)cc1C(F)(F)F | 165 µM
* CCCCCCCCCCO | 15.2 µM
* CCC(=O)c1ccc(N)cc1 | 979 µM
* C=CC(Cl)CCl (centres undefined) | 65.4 µM
* Cc1cccc(Cl)c1C#N | 99.6 µM
* Brc1ccsc1 | 38 µM
* CCCCN | 3660 µM
* [N-]=[N+]=[N-] | 84 µM
* Oc1ccc(Cl)cc1Cc1cc(Cl)ccc1O | 1.15 µM
* C[N+](C)(C)C | 4220 µM
* CC1(C)NC(=O)NC1=O | 129000 µM
* O=CN(c1ccccc1)c1ccccc1 | 154 µM
